tested on: MDA-N; assay: NCI tumour cell line growth inhibition, 48 h
Active and inactive are the calls of the source. No stated cut-off is given here; in the data, active = GI50 up to about 1.1 µM and inactive = higher.
What GI50 was measured for each of the following?

[[record]]
compound = "CSc1cc(Cl)c(C)cc1S(=O)(=O)NC(=O)Nc1ccc(Cl)cc1"
target_under_test = "MDA-N"
quantity_measured = "GI50"
observed = "33.5 µM (inactive)"

[[record]]
compound = "COC(=O)C1=C(C(=O)OC)C2CCC1CC2=O (stereo not given)"
target_under_test = "MDA-N"
quantity_measured = "GI50"
observed = "> 100 µM (inactive)"

[[record]]
compound = "N/C(=N\\c1cccc(Cl)c1)c1ccccc1N"
target_under_test = "MDA-N"
quantity_measured = "GI50"
observed = "> 100 µM (inactive)"

[[record]]
compound = "CC(C)Oc1c(O)c2c3c(oc(=O)n3C=CC2c2ccccc2)c1OC(C)C (stereo not given)"
target_under_test = "MDA-N"
quantity_measured = "GI50"
observed = "36.3 µM (inactive)"

[[record]]
compound = "O=[N+]([O-])/C=C/c1c(Cl)cccc1Cl"
target_under_test = "MDA-N"
quantity_measured = "GI50"
observed = "2.89 µM (inactive)"

[[record]]
compound = "COC(=O)C1=C(C)NC(C)=C(C(=O)OC)C1c1cccc(/[N+]([O-])=C/c2ccccc2)c1"
target_under_test = "MDA-N"
quantity_measured = "GI50"
observed = "17.6 µM (inactive)"

[[record]]
compound = "CCCCCCCCCCCC[C@@H](O)[C@H]1CC[C@H]([C@H](O)CCCC[C@H](O)CCCCC[C@@H](O)CC2=C[C@H](C)OC2=O)O1"
target_under_test = "MDA-N"
quantity_measured = "GI50"
observed = "2.08 µM (inactive)"

[[record]]
compound = "NC(=O)/C=C/NC(=O)/C=N\\O"
target_under_test = "MDA-N"
quantity_measured = "GI50"
observed = "> 100 µM (inactive)"


Quick batch: GI50 for everything below.
1. CCN(CC)CCC(=O)c1ccc(Oc2ccc(Cl)cc2)cc1
2. Cc1c([C@H](C)[C@@H]2NC[C@@H](C)C[C@H]2O)ccc2c1C[C@H]1[C@H]2CC=C2C[C@@H](O)CC[C@@]21C

Result string:
1. 16.1 µM (inactive)
2. 15.7 µM (inactive)

---

What GI50 was measured for each of the following?
test system: M19-MEL; experiment: NCI tumour cell line growth inhibition, 48 h
Activity calls are given as the source filed them. Rule as the data show it: active = GI50 up to about 1.1 µM and inactive = higher.

[[record]]
compound = "CCc1nc2c([nH]1)C(=O)c1ccccc1C2=O"
target_under_test = "M19-MEL"
quantity_measured = "GI50"
observed = "15.3 µM (inactive)"

[[record]]
compound = "COC(=O)C1=Cc2cc3c(cc2[C@H](c2ccc4c(c2)OCO4)C1C(=O)OC)OCO3 (stereo not given in full)"
target_under_test = "M19-MEL"
quantity_measured = "GI50"
observed = "> 100 µM (inactive)"

[[record]]
compound = "COC(=O)c1nc(N)nc(C(=O)OC)c1C(=O)c1ccccc1"
target_under_test = "M19-MEL"
quantity_measured = "GI50"
observed = "> 100 µM (inactive)"

[[record]]
compound = "O=C(/C=C/c1ccc(O)c(O)c1)OC1C[C@@](O)(C(=O)O)C[C@@H](O)[C@H]1OC(=O)/C=C/c1ccc(O)c(O)c1 (stereo not given in full)"
target_under_test = "M19-MEL"
quantity_measured = "GI50"
observed = "> 100 µM (inactive)"


Now turn to the next compound.
Query string: Field request: GI50 | item: COc1ccc(/C=N/n2cnc3c(c2=O)S/C(=C2/SC(=S)N(c4ccc(C)cc4)C2=O)N3c2ccccc2)cc1
Result string: > 100 µM (inactive)

---

What GI50 was measured for each of the following?
system: SF-268; experiment: NCI tumour cell line growth inhibition, 48 h
Active and inactive are the calls of the source. No stated cut-off is given here; in the data, active = GI50 up to about 1.1 µM and inactive = higher.

[[record]]
compound = "CC(=O)N/C=C/c1cc(O)ccc1O"
observed = "31.8 µM (inactive)"

[[record]]
compound = "O=C(CSc1nc2ccc(I)cc2c(=O)n1Cc1ccccc1)NNC(=S)Nc1ccccc1"
observed = "5.27 µM (inactive)"

[[record]]
compound = "COC(=O)CCC(=O)NC1C2CC3CC(C2)CC1C3 (stereo unspecified)"
observed = "> 100 µM (inactive)"


Quick batch: GI50 for everything below.
1. Cc1ccc(C(=O)CC2(O)C(=O)Nc3c(C)cc(Cl)cc32)cc1 (stereo unspecified)
2. COc1ccc(/C=N/n2cnc3c(c2=O)S/C(=C2/SC(=S)N(c4ccc(C)cc4)C2=O)N3c2ccccc2)cc1
3. COC(=O)C1=C(C(=O)OC)C2CCC1CC2=O (stereo unspecified)

Result string:
["> 100 µM (inactive)", "29.4 µM (inactive)", "> 100 µM (inactive)"]

---

tested on: OVCAR-3; experiment: NCI tumour cell line growth inhibition, 48 h
The source made the active and inactive calls. No stated cut-off is given here; in the data, active = GI50 up to about 1.1 µM and inactive = higher.
quantity measured: GI50

[[record]]
compound = "CCOC(=O)C1=C(N)N(c2ccccc2)/C(=C(/C#N)c2nc3ccccc3[nH]2)S1"
quantity_measured = "GI50"
observed = "> 100 µM (inactive)"

[[record]]
compound = "CS(=O)(=O)N1CC(CCl)c2ccc(NCCN)cc21 (stereo unspecified)"
quantity_measured = "GI50"
observed = "> 100 µM (inactive)"

[[record]]
compound = "COc1ccc(N(C)S(=O)(=O)c2ccccc2)cc1"
quantity_measured = "GI50"
observed = "> 100 µM (inactive)"


Quick batch: GI50 for everything below.
1. CCOC(=O)OC1C(Br)C2CCC1(C)C2(C)C (stereo unspecified)
2. O=C(CCC(=O)C1CCC/C1=N/O)Nc1ccc(Cl)cc1 (stereo unspecified)
3. COc1ccc(CCN(C)C(=O)CC(C#N)(c2ccccc2)c2ccc(OC)c(OC)c2)cc1OC (stereo unspecified)

Result string:
["14.7 µM (inactive)", "> 100 µM (inactive)", "> 100 µM (inactive)"]

---

system: UACC-257; assay: NCI tumour cell line growth inhibition, 48 h
Activity calls are given as the source filed them. No stated cut-off is given here; in the data, active = GI50 up to about 1.1 µM and inactive = higher.
Your reply should match one of these outcome classes. yes for active, no for inactive

These recorded examples may help you get a feel for the data.
[[record]]
molecule = "CCCCCCCCCCCC[C@@H](O)[C@H]1CC[C@H]([C@H](O)CCCC[C@H](O)CCCCC[C@@H](O)CC2=C[C@H](C)OC2=O)O1"
target_under_test = "UACC-257"
category = "yes"

[[record]]
molecule = "CCOC(=O)N(C)C(=C(F)F)C(F)(F)F"
target_under_test = "UACC-257"
category = "no"

[[record]]
molecule = "CC1NC(=O)CC(c2ccccc2)N(N=O)C1c1ccccc1 (configuration not stated)"
target_under_test = "UACC-257"
category = "no"

[[record]]
molecule = "COc1cc2nncc(SCc3ccc(Cl)c(Cl)c3)c2cc1OC"
target_under_test = "UACC-257"
category = "no"

[[record]]
molecule = "CSc1ccc(N2C(=O)C3c4[nH]c5ccccc5c4C4CCC(C(C)(C)C)CC4C3C2=O)cc1 (configuration not stated)"
target_under_test = "UACC-257"
category = "no"


Query string: Per the records of this test, what outcome belongs to CCOC(=O)c1cc2c([nH]1)c(O)cc1c2ccn1Cc1ccccc1 ?
Result string: no

Query string: Proceed to CC1=NOC(=O)C1/N=N/c1ccc(Br)c(C)c1 (configuration not stated)
Result string: no

Query string: Proceed to C/C(=C/CO[Si](C)(C)C(C)(C)C)C(=O)N(C)c1ccccc1I
Result string: no

Query string: Proceed to CC(Oc1ccc(OCC2CCCCC2)cc1)C(N)=O (configuration not stated)
Result string: no

Query string: Proceed to N[C@@H]1C[C@H](N)c2c(Cl)sc(Cl)c21
Result string: no

Query string: Proceed to CN/N=C(/Cc1occc(=O)c1O)C(=O)Nc1ccc(C)c(C)c1
Result string: no

Query string: Proceed to CN(C)CCCNC(=O)CCNC(=O)c1cc(NC(=O)c2cc(NC(=O)c3cc(NC(=O)c4nccn4C)cn3C)cn2C)cn1C
Result string: no

---

tested on: A549; experiment: NCI tumour cell line growth inhibition, 48 h
Calls of active or inactive are those of the source. No stated cut-off is given here; in the data, active = GI50 up to about 1.1 µM and inactive = higher.
Your reply should match one of these outcome classes. Y (active), N (inactive)

These recorded examples may help you get a feel for the data.
[[record]]
compound = "Cc1noc(/N=C2\\C=C(Nc3onc(C)c3C)C(=O)c3ccccc32)c1C"
target_under_test = "A549"
category = "N"

[[record]]
compound = "Cc1ccc(C2=Nn3c(nc4sc(-c5ccccc5)cc4c3=O)SC2)cc1"
target_under_test = "A549"
category = "N"

[[record]]
compound = "O=C(N/N=C\\c1cccc(O)c1)c1ccncc1"
target_under_test = "A549"
category = "N"


Query string: Per the records of this test, what outcome belongs to Cc1nc(=O)c2cc(CN(C)c3ccc(C(=O)N[C@@H](CCC(=O)O)C(=O)O)s3)ccc2[nH]1 ?
Result string: N

Query string: Proceed to C=C1C/C(=C/C)C(=O)O[C@@H]2CCN3CC=C(COC(=O)[C@]1(C)O)[C@H]23
Result string: N

Query string: Proceed to OC(CCN1CCN(CCOC(c2ccccc2)c2ccccc2)CC1)c1ccccc1 (centres undefined)
Result string: N

Query string: Proceed to CCOc1ccc(NC(=O)CC2SC(N)=NC2=O)cc1 (centres undefined)
Result string: N

Query string: Proceed to O=C(c1ccccc1)c1c(C(F)(F)F)[n+]([O-])c2cc(Cl)c(Cl)cc2[n+]1[O-]
Result string: Y

Query string: Proceed to N#C/C(=C\c1ccc([N+](=O)[O-])o1)c1n[nH]c(Cc2ccccc2)n1
Result string: N

Query string: Proceed to O=C(/C=C/c1ccc(O)c(O)c1)OC1C[C@@](O)(C(=O)O)C[C@@H](O)[C@H]1OC(=O)/C=C/c1ccc(O)c(O)c1 (some centres undefined)
Result string: N

Query string: Proceed to CN(/N=C/c1ccc(OCc2cccc(COc3ccc(C=O)cc3)n2)cc1)c1cnn(-c2ccc(Cl)cc2Cl)c(=O)c1Cl
Result string: N

Query string: Proceed to NC(CNc1ccc(O)cc1)C(=O)O (centres undefined)
Result string: N

Query string: Proceed to COc1cc([C@@H]2c3cc4c(cc3[C@@H](NC(=O)c3ccc(C(C)=O)cc3)C3COC(=O)[C@@H]32)OCO4)cc(OC)c1O (some centres undefined)
Result string: Y
